target: Galanin receptor type 3 (Homo sapiens); experiment: blockers of human galanin receptor 3 – cell-based, fluorescence, triplicate, confirmation (AID 652245); details: HEK293 GalR3 CNG cAMP biosensor, membrane potential fluorescence; at 3 µM; challenged with forskolin and galanin at EC90; galR3 fused to GalR1 carboxy tail
Out of some 1,600 compounds screened, about 920 (58%) were called active.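 How the source made its calls: active means inhibition above the primary screen's cutoff, the mean inhibition of all screened compounds plus 3 SD (cut at about 13% in these data); inactive means the rest.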 The set was probably picked from earlier hits. These entries were drawn from the full list.
Labels: active, inactive

>  <SMILES STRING>
Cc1c(C=O)c2ccccc2n1CC(=O)O

>  <DISCRETE LABEL>
inactive

$$$$
>  <SMILES STRING>
C=CCC1(CC=C)CCCN1C(=O)c1cc(COc2ccc(-n3cncn3)cc2)on1

>  <DISCRETE LABEL>
active

$$$$
>  <SMILES STRING>
CN(Cc1cccnc1)C(=O)c1cc(COc2ccc3ncccc3c2)on1

>  <DISCRETE LABEL>
active

$$$$
